Target: T1, GST-41.8 kD PDZ domain fusion protein (hypothetical 41.8 kD protein AA4-85; PDZ domain 1 of 1) (UniProt P08515 1-218 = GST)
T1 construct: also called hypoth
T1 sequence (P08515 1-218, tags or fused parts left off): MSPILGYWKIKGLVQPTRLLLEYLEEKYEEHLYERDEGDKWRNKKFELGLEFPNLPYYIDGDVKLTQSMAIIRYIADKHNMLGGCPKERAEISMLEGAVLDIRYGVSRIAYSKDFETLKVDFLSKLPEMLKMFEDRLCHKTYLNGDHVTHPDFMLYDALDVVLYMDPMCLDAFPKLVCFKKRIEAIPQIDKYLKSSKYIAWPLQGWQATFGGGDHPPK
Assay: A and G assays
Ends that are not written are not given here. * marks the point of attachment. Biotin = O=C1N[C@H]2[C@H](CS[C@H]2CCCCC(=O)*)N1
quantity: binding result

Below: 4 binders and their reported binding result.
binder: Biotin-SVFSIPTLWSPWPPSSSSQL (also called CD3-eta) [CD3n C-terminal PL peptide AA4L, biotinylated]
quantity: binding result
experimental result: binds
--
binder: Biotin-HKAEIHAQPSDKERLTSDA [CD49F (Aform, alpha 6) C-terminal PL peptide AA12L, biotinylated]
quantity: binding result
experimental result: binds
--
binder: Biotin-PKQANGGAYQKPTKQEEFYA [CD138 (syndecan) C-terminal PL peptide AA18L, biotinylated]
quantity: binding result
experimental result: binds
--
binder: Biotin-LNSCSNRRVYKKMPSIESDV [NMDA C-terminal PL peptide AA34.2L, biotinylated]
quantity: binding result
experimental result: binds

Documented binding result of Biotin-PYGTAMEKAQLKPPATSDA [CD49E (alpha-4) C-terminal PL peptide AA11L, biotinylated] : binds
